Hey, just so you know, these numbers are from ChEMBL document CHEMBL3779800.

- Species: Homo sapiens
- measurement description: Selectivity index, ratio of Ki for recombinant human MAO-A to Ki for recombinant human MAO-B
One threshold, 0.07, splits the recorded Ratio Ki values: lower ones are rule met, equal or higher ones are rule not met.

Request: Identify whether the compound COc1cc(C2=NNC(c3ccccc3)C2)ccc1O (racemic) records Ratio Ki below 0.07.
Result: rule not met

Request: Field: below-cutoff. Rule: recorded Ratio Ki strictly less than 0.07. Subject: COc1cc(C2=NN(C(=O)Oc3ccccc3)C(c3ccccc3)C2)ccc1O (racemic)
Result: rule not met

Request: Decide: Ratio Ki of COc1cc(C2=NN(C(=N)N)C(c3ccccc3)C2)ccc1O (racemic) strictly below 0.07?
Result: rule met

Request: Please indicate whether the reported Ratio Ki of COc1cc(C2=NN(S(=O)(=O)c3ccc(C)cc3)C(c3ccccc3)C2)ccc1O (racemic) is strictly below 0.07.
Result: rule met

Request: Identify whether the compound CCOC(=O)N1N=C(c2ccc(O)c(OC)c2)CC1c1ccccc1 (racemic) records Ratio Ki below 0.07.
Result: rule met

Request: # TODO verify Ratio Ki < 0.07 strictly for this compound: COc1cc(C2=NN(C(=O)c3ccccc3)C(c3ccccc3)C2)ccc1O (racemic)
Result: rule not met

Request: Lab note: Ratio Ki threshold 0.07. Does this compound come in strictly under it? COc1cc(C2=NN(C(N)=S)C(c3ccccc3)C2)ccc1O (racemic)
Result: rule not met

Request: Find out if reported Ratio Ki for COc1cc(C2=NN(C(=S)Nc3ccccc3)C(c3ccccc3)C2)ccc1O (racemic) is less than 0.07
Result: rule met

###

- target entity: UniProt P21397
- measurement description: Inhibition of recombinant human MAO-A using p-tyramine as substrate assessed as H2O2 production preincubated for 15 mins followed by substrate addition measured for 15 mins by amplex red assay
reported metric: pKi
Notebook: values listed as pKi are -log10 of the concentration (mol/L).

Some molecules with recorded pKi:
molecule	reported metric	result value
COc1cc(C2=NN(c3ccccc3)C(c3ccccc3)C2)ccc1O (racemic)	pKi	5.67
COc1cc(C2=NN(C(=O)c3ccccc3)C(c3ccccc3)C2)ccc1O (racemic)	pKi	5.37
COc1cc(C2=NNC(c3ccccc3)C2)ccc1O (racemic)	pKi	5.30
COc1cc(C2=NN(C(=S)Nc3ccccc3)C(c3ccccc3)C2)ccc1O (racemic)	pKi	6.26

Data point: COc1cc(C2=NN(S(=O)(=O)c3ccc(C)cc3)C(c3ccccc3)C2)ccc1O (racemic) ; pKi = 7.22

pKi recorded for this molecule, COc1cc(C2=NN(C(=N)N)C(c3ccccc3)C2)ccc1O (racemic) , is 5.02

Lab note: measured pKi of COc1cc(C2=NN(C(=O)Oc3ccccc3)C(c3ccccc3)C2)ccc1O (racemic) was 6.54

pKi recorded for this molecule, CCOC(=O)N1N=C(c2ccc(O)c(OC)c2)CC1c1ccccc1 (racemic) , is 6.36

The measured pKi associated with COc1cc(C2=NN(C(N)=S)C(c3ccccc3)C2)ccc1O (racemic) reads 5.59

Form: molecule = COc1cc(C2=NN(C(C)=O)C(c3ccccc3)C2)ccc1O (racemic) ; pKi = 5.41

###

- target entity: Amine oxidase [flavin-containing] A (Homo sapiens, UniProt P21397)
- Sequence (P21397 whole entry): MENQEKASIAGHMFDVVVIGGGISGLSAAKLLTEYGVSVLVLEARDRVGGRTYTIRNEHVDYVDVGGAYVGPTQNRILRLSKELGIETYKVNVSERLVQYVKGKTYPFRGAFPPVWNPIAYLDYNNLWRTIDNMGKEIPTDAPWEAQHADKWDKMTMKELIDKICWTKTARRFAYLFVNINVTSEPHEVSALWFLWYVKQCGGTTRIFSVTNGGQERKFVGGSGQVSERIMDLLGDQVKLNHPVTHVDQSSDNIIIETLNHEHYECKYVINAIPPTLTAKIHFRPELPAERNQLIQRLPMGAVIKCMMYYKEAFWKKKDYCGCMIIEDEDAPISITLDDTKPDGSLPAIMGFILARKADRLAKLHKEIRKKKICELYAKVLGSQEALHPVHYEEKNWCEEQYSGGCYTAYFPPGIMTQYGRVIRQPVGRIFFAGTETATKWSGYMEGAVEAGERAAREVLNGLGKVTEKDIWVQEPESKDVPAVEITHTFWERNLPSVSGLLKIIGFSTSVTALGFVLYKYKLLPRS
- measurement description: Competitive inhibition of recombinant human MAO-A using p-tyramine as substrate preincubated for 15 mins followed by substrate addition by Lineweaver-Burk plot analysis
reported metric: inhibition (INH)

Please review the following examples before continuing.
compound	inhibition (INH)
COc1cc(C2=NN(C(=O)c3ccccc3)C(c3ccccc3)C2)ccc1O (racemic)	Active
O=C(NCCN1CCOCC1)c1ccc(Cl)cc1 [MOCLOBEMIDE]	Active
COc1cc(C2=NN(c3ccccc3)C(c3ccccc3)C2)ccc1O (racemic)	Active
COc1cc(C2=NN(C(=N)N)C(c3ccccc3)C2)ccc1O (racemic)	Active
COc1cc(/C=C/C(=O)CC(=O)/C=C/c2ccc(O)c(OC)c2)ccc1O	Active
COc1cc(C2=NNC(c3ccccc3)C2)ccc1O (racemic)	Active
COc1cc(C2=NN(C(=O)Oc3ccccc3)C(c3ccccc3)C2)ccc1O (racemic)	Active
CCOC(=O)N1N=C(c2ccc(O)c(OC)c2)CC1c1ccccc1 (racemic)	Active

# inhibition (INH) (compound: COc1cc(C2=NN(S(=O)(=O)c3ccc(C)cc3)C(c3ccccc3)C2)ccc1O (racemic) ) is Active

Documented inhibition (INH) of COc1cc(C2=NN(C(C)=O)C(c3ccccc3)C2)ccc1O (racemic) : Active

The reported value for COc1cc(C2=NN(C(=S)Nc3ccccc3)C(c3ccccc3)C2)ccc1O (racemic) in terms of inhibition (INH) is Active

Please fill in: inhibition (INH) reported for COc1cc(C2=NN(C(N)=S)C(c3ccccc3)C2)ccc1O (racemic) = Active

###

- target entity: Amine oxidase [flavin-containing] B (Homo sapiens, UniProt P27338)
- Sequence (P27338 whole entry): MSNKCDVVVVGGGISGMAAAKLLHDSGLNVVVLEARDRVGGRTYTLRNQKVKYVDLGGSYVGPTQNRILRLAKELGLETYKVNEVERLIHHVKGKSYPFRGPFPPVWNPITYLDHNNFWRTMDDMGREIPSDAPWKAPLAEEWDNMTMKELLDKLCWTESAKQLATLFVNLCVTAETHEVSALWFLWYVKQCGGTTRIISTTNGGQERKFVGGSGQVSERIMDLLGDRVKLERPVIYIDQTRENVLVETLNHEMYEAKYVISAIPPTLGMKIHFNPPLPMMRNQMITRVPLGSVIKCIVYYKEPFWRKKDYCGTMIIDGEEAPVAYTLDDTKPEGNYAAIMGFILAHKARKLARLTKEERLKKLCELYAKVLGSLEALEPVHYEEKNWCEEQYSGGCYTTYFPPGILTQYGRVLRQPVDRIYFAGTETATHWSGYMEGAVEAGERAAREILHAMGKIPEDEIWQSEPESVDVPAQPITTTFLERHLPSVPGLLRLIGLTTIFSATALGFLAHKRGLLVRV
- measurement description: Inhibition of recombinant human MAO-B using p-tyramine as substrate assessed as H2O2 production preincubated for 15 mins followed by substrate addition measured for 15 mins by amplex red assay
pKi: −log10 of the molar value.
Rule: pKi of 5 or more gives class 1; anything lower gives class 0.

Request: Dear colleague, could you confirm whether COc1cc(C2=NN(C(=O)Oc3ccccc3)C(c3ccccc3)C2)ccc1O (racemic) has pKi at or above 5?
Result: class 1

Request: Please indicate if the recorded pKi for COc1cc(C2=NN(C(=O)c3ccccc3)C(c3ccccc3)C2)ccc1O (racemic) meets or exceeds 5.
Result: class 0

Request: # check: pKi of COc1cc(C2=NN(C(=S)Nc3ccccc3)C(c3ccccc3)C2)ccc1O (racemic) is greater than or equal to 5
Result: class 0

Request: Could you please find out whether COc1cc(C2=NN(C(N)=S)C(c3ccccc3)C2)ccc1O (racemic) has pKi that meets 5 or exceeds it?
Result: class 1

###

- target entity: Amine oxidase [flavin-containing] B (Homo sapiens)
- measurement description: Inhibition of recombinant human MAO-B using p-tyramine as substrate assessed as H2O2 production preincubated for 15 mins followed by substrate addition measured for 15 mins by amplex red assay
reported metric: pKi
Entry type: numeric. Quantity: pKi, the -log10 of concentration in molar units.

Reference set, count: 3
compound	result value
COc1cc(C2=NN(S(=O)(=O)c3ccc(C)cc3)C(c3ccccc3)C2)ccc1O (racemic)	2.23
COc1cc(C2=NNC(c3ccccc3)C2)ccc1O (racemic)	6.46
COc1cc(C2=NN(C(=N)N)C(c3ccccc3)C2)ccc1O (racemic)	3.70

Proceed to the following item.
Recorded pKi (compound CCOC(=O)N1N=C(c2ccc(O)c(OC)c2)CC1c1ccccc1 (racemic) ): 3.70
